# EXPERIMENTAL_SYSTEM: helicase domain of the Pol θ protein (Homo sapiens, UniProt O75417)
# Construct: The helicase domain of the Pol θ protein was purified from insect protein expression system; made in house; host or cells: insect protein expression system
# Sequence (O75417 102-554 limits assumed): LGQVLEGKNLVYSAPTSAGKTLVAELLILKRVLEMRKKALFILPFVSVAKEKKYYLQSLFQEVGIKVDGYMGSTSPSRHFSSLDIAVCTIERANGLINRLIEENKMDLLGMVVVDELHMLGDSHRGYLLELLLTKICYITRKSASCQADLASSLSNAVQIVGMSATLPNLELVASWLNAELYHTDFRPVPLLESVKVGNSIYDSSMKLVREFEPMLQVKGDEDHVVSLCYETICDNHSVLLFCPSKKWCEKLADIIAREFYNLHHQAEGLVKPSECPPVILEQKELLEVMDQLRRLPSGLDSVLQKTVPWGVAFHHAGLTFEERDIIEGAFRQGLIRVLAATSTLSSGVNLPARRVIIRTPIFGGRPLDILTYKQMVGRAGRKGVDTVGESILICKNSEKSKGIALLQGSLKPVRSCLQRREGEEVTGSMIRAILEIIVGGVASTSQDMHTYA
# ASSAY_PROTOCOL: Biochemical Activity Assay (ADP Glo Assay) of Pol θ inhibitor, ATPase activity
# MEASUREMENT_CONDITIONS: ADP-Glo assay, ATPase activity of Pol θ helicase domain, ssDNA substrate; read-out: Biochemical assay IC50
pIC50: −log10 of the molar value.
QUANTITY_KIND: pIC50

Worked examples, 5 molecules total:
# MOLECULE, pIC50
data = [
    ("COc1cnc(Cl)cc1-c1cc(C)ncc1C(=O)Nc1nc2cnc(-c3nnn(C)n3)cc2s1", 8.71),
    ("COc1cnc(Cl)cc1-c1cc(C)ncc1C(=O)Nc1nc2c(C(=O)O)cc(-c3c(C)cnn3C)cc2s1", 8.08),
    ("COc1ccc(Cl)cc1-c1cc(C)ncc1C(=O)Nc1nc2ncc(-c3ccc(C#N)cc3)nc2s1 [Comparative Example 1, reference compound]", 8.16),
    ("COc1cnc(Cl)cc1-c1cc(C)ncc1C(=O)Nc1nc2ccc(C3=CCC(O)CC3)c(F)c2s1 (stereo not shown)", 8.53),
    ("COc1cnc(C(F)F)cc1-c1cc(C)ncc1C(=O)Nc1nc2cnc(-c3c(C)noc3C)cc2s1", 8.47),
]

(P) COc1cnc(Cl)cc1-c1cc(C)ncc1C(=O)Nc1nc2ncc(C3=CCC4(CC3)CC(O)C4)cc2s1 (stereo not shown)
(Q) COc1ccccc1-c1cnncc1C(=O)Nc1nc2ccc(-c3ccn[nH]3)nc2s1 [Comparative Example 2, reference compound]
(R) COc1cnc(Cl)cc1-c1cc(C)ncc1C(=O)Nc1nc2cnc(-c3ccc(S(F)(F)(F)(F)F)cc3)cc2s1
(S) COc1cnc(Cl)cc1-c1cc(C)ncc1C(=O)Nc1nc2cnc(-c3nnc(C)o3)cc2s1
In: Task for the reader: rank each entry by its pIC50, from the minimum upward. Put the labels in the requested order and write them down.
Out: Q, R, P, S

###

# ASSAY_PROTOCOL: cells
# MEASUREMENT_CONDITIONS: Homo sapiens, DLD-1, 240 h, read-out: Cell viability assay IC50 (nM), CTG assay, CellTiter Glo, read on Day 10; cell line not given
QUANTITY_KIND: IC50 (nM)
Write the number in nM without appending the unit.

In: Need IC50, item COc1cnc(Cl)cc1-c1cc(C)ncc1C(=O)Nc1nc2ncc(-c3c(C)cnn3C)nc2s1
Out: 82.5

In: Need IC50, item COc1cnc(Cl)cc1-c1cc(C)ncc1C(=O)Nc1nc2cc(F)c(N3CCC(O)CC3)cc2s1
Out: 10.7

In: Need IC50, item COc1cnc(Cl)cc1-c1cc(C)ncc1C(=O)Nc1nc2ncc(C3=CCC(O)CC3)cc2s1 (stereo not drawn)
Out: 13.6

In: Need IC50, item [2H]C([2H])([2H])Oc1cnc(Cl)cc1-c1cc(C)ncc1C(=O)Nc1nc2cnc(-c3c(C)cnn3C)cc2s1
Out: 5.62

In: Need IC50, item [2H]C([2H])([2H])c1cnn(C)c1-c1cc2sc(NC(=O)c3cnc(C)cc3-c3cc(Cl)ncc3OC)nc2cn1
Out: 4.29

In: Need IC50, item COc1cnc(C(F)F)cc1-c1cc(C)ncc1C(=O)Nc1nc2cnc(-c3c(C)nnn3C3CC3)cc2s1
Out: 4.13

In: Need IC50, item CCP(=O)(CC)c1ccc(-c2cc3sc(NC(=O)c4cnc(C)cc4-c4cc(Cl)ncc4OC)nc3cc2F)cc1
Out: 12.9

In: Need IC50, item COc1cnc(Cl)cc1-c1cc(C)ncc1C(=O)Nc1nc2ncc(N3CCCC(O)C3)cc2s1 (stereo not drawn)
Out: 142

In: Need IC50, item COc1cnc(Cl)cc1-c1cc(C)ncc1C(=O)Nc1nc2cnc(-c3c(F)cnn3C)cc2s1
Out: 17.8

In: Need IC50, item COc1cnc(Cl)cc1-c1cc(C)ncc1C(=O)Nc1nc2ccc(N3CCC(O)C3)nc2s1 (stereo not drawn)
Out: 631

In: Need IC50, item COc1cnc(Cl)cc1-c1cc(C)ncc1C(=O)Nc1nc2ncc(N3CCC(NC(=O)C4(C)CC4)CC3)cc2s1
Out: 383

###

# EXPERIMENTAL_SYSTEM: helicase domain of the Pol θ protein (Homo sapiens, UniProt O75417)
# Construct: The helicase domain of the Pol θ protein was purified from insect protein expression system; made in house; host or cells: insect protein expression system
# ASSAY_PROTOCOL: Biochemical Activity Assay (ADP Glo Assay) of Pol θ inhibitor, ATPase activity
# MEASUREMENT_CONDITIONS: ADP-Glo, ssDNA substrate, 60 min at room temperature; read-out: Biochemical assay IC50
pIC50: −log10 of the molar value.
QUANTITY_KIND: pIC50

# COMPOUND, pIC50
rows = [
    ("COc1cccc(F)c1-c1cc(C)ncc1C(=O)Nc1nc2ccc(C3=CCC(O)CC3)nc2s1 (stereo not shown)", "6.70 to 7.30"),
    ("COc1cnc(Cl)cc1-c1cc(C)ncc1C(=O)Nc1nc2ncc(N3CCC(O)C(C)C3)cc2s1 (stereo not shown)", "> 7.30"),
    ("[2H]C1(O)CC=C(c2cc3sc(NC(=O)c4cnc(C)cc4-c4cc(Cl)ncc4OC)nc3cn2)CC1 (stereo not shown)", "> 7.30"),
    ("COc1cnc(Cl)cc1-c1cc(C)ncc1C(=O)Nc1nc2ncc(C(=O)N3CCC(O)CC3)cc2s1", "> 7.30"),
    ("COc1cnc(Cl)cc1-c1cc(C)ncc1C(=O)Nc1nc2ncc(NC3CCN(S(C)(=O)=O)CC3)cc2s1", "> 7.30"),
    ("COc1cccc(F)c1-c1cc(C)ncc1C(=O)Nc1nc2ccc([C@H]3CC[C@@H](O)CC3)nc2s1", "6.70 to 7.30"),
]

In: Need pIC50, item COc1cnc(Cl)cc1-c1cc(C)ncc1C(=O)Nc1nc2cnc(C3=CCC(O)CC3)nc2s1 (stereo not shown)
Out: > 7.30

In: Need pIC50, item COc1cnc(Cl)cc1-c1cc(C)ncc1C(=O)Nc1nc2ncc(N3CCS(=O)(=O)CC3)cc2s1
Out: > 7.30

In: Need pIC50, item COc1cnc(Cl)cc1-c1cc(C)ncc1C(=O)Nc1nc2cc(C3=CCC(O)CC3)cnc2s1 (stereo not shown)
Out: 6.70 to 7.30

In: Need pIC50, item COc1cnc(Cl)cc1-c1cc(C)ncc1C(=O)Nc1nc2ncc(C3CCOCC3)cc2s1
Out: > 7.30

In: Need pIC50, item Cc1cc(-c2c(F)cccc2OC(F)F)c(C(=O)Nc2nc3ccc(C4=CCC(O)CC4)nc3s2)cn1 (stereo not shown)
Out: > 7.30

###

# EXPERIMENTAL_SYSTEM: helicase domain of the Pol θ protein (Homo sapiens, UniProt O75417)
# Construct: The helicase domain of the Pol θ protein was purified from insect protein expression system; made in house; host or cells: insect protein expression system
# ASSAY_PROTOCOL: Biochemical Activity Assay (ADP Glo Assay) of Pol θ inhibitor, ATPase activity
# MEASUREMENT_CONDITIONS: ADP-Glo assay, ATPase activity of Pol θ helicase domain, ssDNA substrate; read-out: Biochemical assay IC50
QUANTITY_KIND: IC50 (nM)

# SMILES_DATA, EXPERIMENTAL_SYSTEM, QUANTITY_KIND, MEASUREMENT_UNITS, VALUE_REPORTED
measured = [
    ("COc1cnc(Cl)c(F)c1-c1cc(C)ncc1C(=O)Nc1nc2cnc(N3CCC(O)CC3)nc2s1", "helicase domain of the Pol θ protein (Homo sapiens, UniProt O75417)", "IC50", "nM", 6.51),
    ("COc1cnc(Cl)cc1-c1cc(C)ncc1C(=O)Nc1nc2cnc(-c3c(C)nn4ccccc34)cc2s1", "helicase domain of the Pol θ protein (Homo sapiens, UniProt O75417)", "IC50", "nM", 6.31),
    ("COc1cnc(C(F)F)cc1-c1cc(C)ncc1C(=O)Nc1nc2cnc(N3CCOCC3=O)nc2s1", "helicase domain of the Pol θ protein (Homo sapiens, UniProt O75417)", "IC50", "nM", 8.57),
    ("COc1cnc(Cl)cc1-c1cc(C)ncc1C(=O)Nc1nc2cnc(N3CC[C@@H](O)C[C@H]3C)nc2s1", "helicase domain of the Pol θ protein (Homo sapiens, UniProt O75417)", "IC50", "nM", 8.23),
]

###

# ASSAY_PROTOCOL: cells
# MEASUREMENT_CONDITIONS: Homo sapiens, DLD-1, 240 h, read-out: Cell viability assay IC50 (nM), CTG assay, CellTiter Glo, read on Day 10; cell line not given
Recorded measurements of IC50, one per entry
Write the number in nM without appending the unit.

Worked examples, 3 compounds total:
# COMPOUND, IC50 [nM]
rows = [
    ("COc1cnc(Cl)cc1-c1cc(C)ncc1C(=O)Nc1nc2ncc(N3CC[C@@H](O)[C@H](F)C3)cc2s1 [Example 101]", 389),
    ("COc1cnc(Cl)cc1-c1cc(C)ncc1C(=O)Nc1nc2ncc(N3CCC4(CC(O)C4)C3)cc2s1 (centres unmarked) [Example 99]", 138),
    ("COc1cnc(Cl)cc1-c1cc(C)ncc1C(=O)Nc1nc2ncc(C3=CCNCC3)cc2s1 [Example 16]", 2330),
]

In: Need IC50, item COC(=O)c1cc(-c2c(C)cnn2C)cc2sc(NC(=O)c3cnc(C)cc3-c3cc(Cl)ncc3OC)nc12 [Example 162]
Out: 233

In: Need IC50, item CNC1CCN(c2cnc3nc(NC(=O)c4cnc(C)cc4-c4cc(Cl)ncc4OC)sc3c2)CC1 [Example 73]
Out: 209
